protocol.details: Half life in mouse at 1 mg/kg, iv
Format: ADME, organism-based
Set-up: dose 1 mg/kg, route intravenous
reported.conditions: in vivo
quantity.measured: half-life (min)
One number for each entry, in min.

Returns the measured half-life for the input compound. Input: CCC1(C)NC(=O)c2cc(S(=O)(=O)Nc3ccc(F)cc3F)cc(Cl)c2NC1=O (stereo unspecified)
12

====

protocol.details: Plasma clearance in rat at 3 mg/kg, po and 1 mg/kg, iv
Assay type: ADME, organism-based
quantity.measured: clearance (mL/min/kg)
Give bare numbers, in mL/min/kg.

Returns the measured clearance for the input molecule. Input: CCC1(C)NC(=O)c2cc(S(=O)(=O)Nc3ccc(F)cc3F)cc(Cl)c2NC1=O (stereo unspecified)
4.1

====

protocol.details: Lipophilicity, log D of the compound at pH 7.4 after 30 mins by shake-flask method
reported.conditions: buffer, pH 7.4, logD
quantity.measured: logD at 0.5 h
Give bare numbers.

{"molecule": "CC1(C)NC(=O)c2cc(S(=O)(=O)Nc3ccc(C(F)(F)F)cc3)ccc2NC1=O", "reported.result": 2.6}
{"molecule": "COc1cc(S(=O)(=O)Nc2ccc(C(F)(F)F)cc2)cc2c1NC(=O)C(C)(C)NC2=O", "reported.result": 2.6}
{"molecule": "CCC1(C)NC(=O)c2cc(S(=O)(=O)Nc3ccc(C)cc3C#N)cc(Cl)c2NC1=O (single isomer, unassigned)", "reported.result": 0.6}
{"molecule": "CCC1(C)NC(=O)c2cc(S(=O)(=O)Nc3ccc(F)cc3F)cc(OC)c2NC1=O (racemic)", "reported.result": 1.8}
{"molecule": "CCC1(C)NC(=O)c2cc(S(=O)(=O)Nc3ccc(C(F)(F)F)cc3F)cc(Cl)c2NC1=O (stereo not drawn)", "reported.result": 1.8}
{"molecule": "CCC1(C)NC(=O)c2cc(S(=O)(=O)Nc3ccc(F)cc3F)cc(Cl)c2NC1=O (stereo not drawn)", "reported.result": 1.9}

Required: logD at 0.5 h, one value per molecule below.
1. COc1c(S(=O)(=O)Nc2ccc(C(F)(F)F)cc2)ccc2c1C(=O)NC(C)(C)C(=O)N2
2. CC1(C)NC(=O)c2cc(S(=O)(=O)Nc3ccc(C(F)(F)F)cc3)cc(F)c2NC1=O
3. Cc1cc(S(=O)(=O)Nc2ccc(F)cc2F)cc2c1NC(=O)C(C)(C)NC2=O
4. CC[C@]1(C)NC(=O)c2cc(S(=O)(=O)Nc3ccc(F)cc3F)ccc2NC1=O
5. CC[C@]1(C)NC(=O)c2cc(S(=O)(=O)Nc3ccc(C(F)(F)F)cc3F)ccc2NC1=O

1: 1.9; 2: 2.3; 3: 1.4; 4: 1.7; 5: 1.7

====

protocol.details: Unbound fraction in rat plasma by equilibrium dialysis method
Format: ADME, cell-free
quantity.measured: fraction unbound

Returns the measured fraction unbound for the input molecule. Input: CCC1(C)NC(=O)c2cc(S(=O)(=O)Nc3ccc(F)cc3F)cc(Cl)c2NC1=O (stereo unspecified)
0.03

====

I'd be grateful if you could share measured logD at 0.5 h for these entries.
protocol.details: Lipophilicity, log D of the compound at pH 7.4 after 30 mins by shake-flask method
reported.conditions: buffer, pH 7.4, logD
Answers are plain numbers.

Reference set, count: 2
{"smiles.entry": "CC1(C)NC(=O)c2cc(S(=O)(=O)Nc3ccc(C(F)(F)F)cc3)ncc2NC1=O", "logD at 0.5 h": 1.6}
{"smiles.entry": "Cc1cc(S(=O)(=O)Nc2ccc(C(F)(F)F)cc2)cc2c1NC(=O)C(C)(C)NC2=O", "logD at 0.5 h": 2.6}

Returns the measured logD at 0.5 h for the input molecule. Input: `CC1(C)NC(=O)c2cc(S(=O)(=O)Nc3ccc(F)cc3F)cc(C(F)(F)F)c2NC1=O`
1.9

====

protocol.details: Half life in rat at 3 mg/kg, po
Type: ADME, organism-based
Design: dose 3 mg/kg, route oral
reported.conditions: in vivo
quantity.measured: half-life (h)
Answers are plain numbers, in h.

Returns the measured half-life for the input compound. Input: CCC1(C)NC(=O)c2cc(S(=O)(=O)Nc3ccc(F)cc3F)cc(Cl)c2NC1=O (stereo unspecified)
2.4

====

A set of compounds tested on 2-acylglycerol O-acyltransferase 2 (Homo sapiens, UniProt Q3SYC2), with measured log10 of IC50:
Each number you see is log10 of IC50, and the unit inside the log is µM.

{"compound": "COc1cc2c(cc1S(=O)(=O)Nc1ccc(C(F)(F)F)cc1)C(=O)NC(C)(C)C(=O)N2", "log10 of IC50": 0.88}
{"compound": "CCC1(C)NC(=O)c2cc(S(=O)(=O)Nc3ccc(C(F)(F)F)cc3OC)cc(Cl)c2NC1=O (stereo unspecified)", "log10 of IC50": -2.15}

Required: log10 of IC50, one value per compound below.
1. CCC1(C)NC(=O)c2cc(S(=O)(=O)Nc3ccc(F)cc3F)cc(C)c2NC1=O (single isomer, unassigned)
2. CCC1(C)NC(=O)c2cc(S(=O)(=O)Nc3ccc(C)cc3C#N)cc(Cl)c2NC1=O (single isomer, unassigned; enantiomer 1)
3. CC[C@]1(C)NC(=O)c2cc(S(=O)(=O)Nc3ccc(C(F)(F)F)cc3F)ccc2NC1=O

1. -2.15
2. -1.64
3. -1.92

Required: log10 of IC50, one value per compound below.
1. CCC1(C)NC(=O)c2cc(S(=O)(=O)Nc3ccc(C(F)(F)F)cc3F)cc(Cl)c2NC1=O (stereo unspecified)
2. CC1(C)NC(=O)c2cc(S(=O)(=O)Nc3ccc(C(F)(F)F)cc3)cc(F)c2NC1=O

[-1.92, 0.29]

Required: log10 of IC50, one value per compound below.
1. CCc1cc(S(=O)(=O)Nc2ccc(F)cc2F)cc2c1NC(=O)C(C)(CC)NC2=O (racemic)
2. CCC1(C)NC(=O)c2cc(S(=O)(=O)Nc3ccc(F)cc3F)cc(Cl)c2NC1=O (stereo unspecified)
3. COc1cc(S(=O)(=O)Nc2ccc(C(F)(F)F)cc2)cc2c1NC(=O)C(C)(C)NC2=O

[-2.40, -2.05, -0.96]

====

protocol.details: Unbound fraction in human plasma by equilibrium dialysis method
Assay type: ADME, cell-free
quantity.measured: fraction unbound
Answers are plain numbers.

Returns the measured fraction unbound for the input compound. Input: CCC1(C)NC(=O)c2cc(S(=O)(=O)Nc3ccc(F)cc3F)cc(Cl)c2NC1=O (stereo unspecified)
0.017

====

protocol.details: Half life in rat at 1 mg/kg, iv
Format: ADME, organism-based
Design: dose 1 mg/kg, route intravenous
reported.conditions: in vivo
quantity.measured: half-life (h)
One number for each entry, in h.

Returns the measured half-life for the input compound. Input: CCC1(C)NC(=O)c2cc(S(=O)(=O)Nc3ccc(F)cc3F)cc(Cl)c2NC1=O (stereo unspecified)
1.3

====

protocol.details: Aqueous solubility of the compound in phosphate buffer at pH 7.4 after 24 hrs by LC-UVMS analysis
Type: physicochemical
quantity.measured: solubility at 24 h
Please answer using a numeric value trailed by its unit.

Returns the measured solubility at 24 h for the input molecule. Input: CCC1(C)NC(=O)c2cc(S(=O)(=O)Nc3ccc(F)cc3F)cc(Cl)c2NC1=O (stereo unspecified)
150 µM

====

protocol.details: Half life in mouse at 50 mg/kg, po
Format: ADME, organism-based
Design: dose 50 mg/kg, route oral
reported.conditions: in vivo
quantity.measured: half-life (h)
Answers are plain numbers, in h.

Returns the measured half-life for the input molecule. Input: CCC1(C)NC(=O)c2cc(S(=O)(=O)Nc3ccc(F)cc3F)cc(Cl)c2NC1=O (stereo unspecified)
1.2

====

I'd be grateful if you could share measured Papp A→B for these entries.
protocol.details: Apparent permeability of the compound from apical to basolateral side in human Caco2 cells
reported.conditions: Caco-2, Papp
Give bare numbers, in ×10⁻⁶ cm/s.

Reference set, count: 8
{"compound": "CCC1(C)NC(=O)c2cc(S(=O)(=O)Nc3ccc(C)cc3C#N)cc(Cl)c2NC1=O (single isomer, unassigned)", "quantity.measured": "Papp A→B", "reported.result": 11}
{"compound": "CC1(C)NC(=O)c2cc(S(=O)(=O)Nc3ccc(C(F)(F)F)cc3)cc(F)c2NC1=O", "quantity.measured": "Papp A→B", "reported.result": 14}
{"compound": "Cc1cc(S(=O)(=O)Nc2ccc(F)cc2F)cc2c1NC(=O)C(C)(C)NC2=O", "quantity.measured": "Papp A→B", "reported.result": 10}
{"compound": "CC1(C)NC(=O)c2c(ccc(S(=O)(=O)Nc3ccc(C(F)(F)F)cc3)c2F)NC1=O", "quantity.measured": "Papp A→B", "reported.result": 4}
{"compound": "CCC1(C)NC(=O)c2cc(S(=O)(=O)Nc3ccc(C(F)(F)F)cc3F)cc(Cl)c2NC1=O (centres undefined)", "quantity.measured": "Papp A→B", "reported.result": 29}
{"compound": "CCC1(C)NC(=O)c2cc(S(=O)(=O)Nc3ccc(F)cc3F)cc(Cl)c2NC1=O (centres undefined)", "quantity.measured": "Papp A→B", "reported.result": 35}
{"compound": "Cc1c(S(=O)(=O)Nc2ccc(C(F)(F)F)cc2)ccc2c1C(=O)NC(C)(C)C(=O)N2", "quantity.measured": "Papp A→B", "reported.result": 9}
{"compound": "CC1(C)NC(=O)c2cc(S(=O)(=O)Nc3ccc(F)cc3F)cc(C#N)c2NC1=O", "quantity.measured": "Papp A→B", "reported.result": 3}

Returns the measured Papp A→B for the input compound. Input: `CC[C@]1(C)NC(=O)c2cc(S(=O)(=O)Nc3ccc(F)cc3F)ccc2NC1=O`
8
